SYSTEM NAME: Androgen receptor (Homo sapiens, UniProt P10275, W742L)
Sequence (P10275 whole entry W742L): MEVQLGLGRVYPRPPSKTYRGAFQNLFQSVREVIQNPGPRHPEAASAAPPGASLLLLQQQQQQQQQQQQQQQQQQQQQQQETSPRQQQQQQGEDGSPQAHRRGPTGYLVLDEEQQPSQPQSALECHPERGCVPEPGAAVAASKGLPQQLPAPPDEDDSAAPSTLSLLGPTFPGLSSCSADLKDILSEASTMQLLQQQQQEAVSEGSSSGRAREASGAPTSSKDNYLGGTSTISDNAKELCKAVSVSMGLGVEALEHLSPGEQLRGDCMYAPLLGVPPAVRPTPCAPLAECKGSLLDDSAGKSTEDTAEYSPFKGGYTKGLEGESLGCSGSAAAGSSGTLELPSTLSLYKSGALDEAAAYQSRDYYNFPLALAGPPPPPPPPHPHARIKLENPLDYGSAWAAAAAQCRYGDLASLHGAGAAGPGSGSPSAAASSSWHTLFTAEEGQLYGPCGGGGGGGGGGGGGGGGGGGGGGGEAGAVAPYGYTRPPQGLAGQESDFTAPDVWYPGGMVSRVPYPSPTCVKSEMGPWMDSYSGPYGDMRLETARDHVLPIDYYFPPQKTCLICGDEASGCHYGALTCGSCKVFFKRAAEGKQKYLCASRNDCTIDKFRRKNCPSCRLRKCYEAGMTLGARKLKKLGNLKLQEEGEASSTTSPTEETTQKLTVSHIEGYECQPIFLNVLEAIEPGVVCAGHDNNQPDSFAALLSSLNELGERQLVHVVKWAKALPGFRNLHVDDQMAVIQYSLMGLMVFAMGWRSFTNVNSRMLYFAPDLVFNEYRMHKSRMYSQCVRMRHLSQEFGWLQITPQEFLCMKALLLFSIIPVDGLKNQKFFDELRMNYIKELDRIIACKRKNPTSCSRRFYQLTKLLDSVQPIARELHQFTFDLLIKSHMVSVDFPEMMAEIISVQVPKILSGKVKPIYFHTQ
EXPERIMENT SUMMARY: Binding affinity to androgen receptor W741L mutant by competitive binding assay
The entries below are paired with their reported Ki.
Write the quantity with the unit trailing the number.

Would you please look over these solved cases?
INSERT INTO measurements (substance_smiles, observed_property, endpoint_result) VALUES
  ('C[C@](O)(CS(=O)(=O)c1cccc2ccccc12)C(=O)Nc1ccc(C#N)c(C(F)(F)F)c1', 'Ki', '2000 nM'),
  ('C[C@](O)(CS(=O)(=O)c1ccccc1Cc1ccccc1)C(=O)Nc1ccc(C#N)c(C(F)(F)F)c1', 'Ki', '2000 nM');

Q) Consider the molecule C[C@](O)(CS(=O)(=O)c1ccccc1-c1ccccc1)C(=O)Nc1ccc(C#N)c(C(F)(F)F)c1 . State its measured Ki.
A) 2000 nM
